Reference source for all entries: PubChem BioAssay (NCI)

test system: 786-0 renal; assay: NCI-60 one-dose screen, 48 h (100 = growth as untreated, 0 = no growth, -100 = all killed); conditions: 10 µM unless noted
The panel holds about 83,000 compounds, 20% with a hit somewhere; the sample as a whole holds those more often.
The label Condition met is reserved for growth strictly under 60%; Condition not met covers values equal to or above it.

Please review the entries below; each comes with its answer.
- MOLECULE: "COC(=O)c1ccc(NC(N)=NCCC(C)(C)c2ccc(C(F)(F)F)cc2)nc1"
  ASSAYED SYSTEM: "786-0 renal"
  ASSIGNED CATEGORY: "Condition met"
- MOLECULE: "COc1ccc(/C=C(/C(=O)N2CCN(c3ccccc3)CC2)c2cc(OC)c(OC)c(OC)c2)cc1O"
  ASSAYED SYSTEM: "786-0 renal"
  ASSIGNED CATEGORY: "Condition met"
- MOLECULE: "COc1ccc(-c2nn(-c3cccc(Cl)c3)cc2/C=C2\\C(=N)N(c3ccccc3)N=C2N)cc1"
  ASSAYED SYSTEM: "786-0 renal"
  ASSIGNED CATEGORY: "Condition met"
- MOLECULE: "Nc1ncnc2c1N=C(c1ccc(F)cc1)CC(c1sc(Cl)nc1Cl)N2 (stereo unspecified)"
  ASSAYED SYSTEM: "786-0 renal"
  ASSIGNED CATEGORY: "Condition not met"
- MOLECULE: "O=Cc1ccc2nc(C(Cl)(Cl)Cl)ccc2c1"
  ASSAYED SYSTEM: "786-0 renal"
  ASSIGNED CATEGORY: "Condition not met"

# evaluate next
Dear colleague, could you confirm whether growth of CC1(C)C(N(O)C(=O)Nc2ccc(Cl)cc2)N(c2ccc(Cl)cc2)C(=O)N1CC(=O)N/N=C/C=C/c1ccc([N+](=O)[O-])o1 (stereo unspecified) falls below 60%? Thanks.
Condition met

====

system: NCI-H460 lung; experiment: NCI-60 one-dose screen, 48 h (100 = growth as untreated, 0 = no growth, -100 = all killed); settings: 10 µM unless noted
Compounds without any hit were thinned out: in the full panel of roughly 83,000, 20% have a hit.
// reported growth for each item listed
Just the number please, in %, no unit attached.

Consider the reported growth for these molecules:
- MOLECULE: "CC1C2CCC(C2)C1COCCOCCO (centres undefined)"
  ASSAYED SYSTEM: "NCI-H460 lung"
  RESULT: 112
- MOLECULE: "O=C(CS)OCC(COC(=O)CS)(COC(=O)CS)COC(=O)CS"
  ASSAYED SYSTEM: "NCI-H460 lung"
  RESULT: 75.2
- MOLECULE: "Nc1nc(N)c2c(n1)NC(c1sc(Cl)nc1Cl)CC(c1ccc3c(c1)OCO3)=N2 (centres undefined)"
  ASSAYED SYSTEM: "NCI-H460 lung"
  RESULT: 13.2

API: the following record is the query input.
Specify measured growth for CC(=O)c1cccc(Nc2ncnc3ccc(NC(=O)c4ccco4)cc23)c1 .
96.1

====

test system: SW-620 colon; experiment: NCI-60 one-dose screen, 48 h (100 = growth as untreated, 0 = no growth, -100 = all killed); settings: 10 µM unless noted
This is part of a sample that, as a whole, favours compounds with a hit. Of some 83,000 tested, about 20% had one in any assay.
Quick rule for you: growth at 30% or higher means YES, lower means NO.

Please review the entries below; each comes with its answer.
- COMPOUND: "CC1=C(C(=O)Nc2ccc(F)cc2)C(c2ccc(C)cc2)C2=C(CC(C)(C)CC2=O)N1 (centres undefined)"
  ASSAYED SYSTEM: "SW-620 colon"
  ASSIGNED CATEGORY: "YES"
- COMPOUND: "CCc1ccc(Nc2cc(C)c3ccc(O)cc3n2)cc1"
  ASSAYED SYSTEM: "SW-620 colon"
  ASSIGNED CATEGORY: "YES"
- COMPOUND: "CCn1c(CN2CCN(Cc3ccccc3)CC2)nc2cc(NC(=O)c3cccs3)ccc21"
  ASSAYED SYSTEM: "SW-620 colon"
  ASSIGNED CATEGORY: "NO"
- COMPOUND: "NC(=Nc1ccccc1)SCCCSC(N)=Nc1ccccc1"
  ASSAYED SYSTEM: "SW-620 colon"
  ASSIGNED CATEGORY: "YES"
- COMPOUND: "COc1cccc(NC(=O)[C@H](C(C)C)n2c(=O)[nH]c3ccccc3c2=O)c1"
  ASSAYED SYSTEM: "SW-620 colon"
  ASSIGNED CATEGORY: "YES"
- COMPOUND: "COc1ccc(/C=C2\\Cc3c(Br)cccc3C2=O)c(OC)c1"
  ASSAYED SYSTEM: "SW-620 colon"
  ASSIGNED CATEGORY: "YES"

Does the reported growth for CCc1ccc2c(c1)N(CCO)C1=C(C(=O)OC1)C2c1cccc(Cl)c1 (centres undefined) fall at or above the 30% mark?
NO

Does the reported growth for CNCCCNc1ccnc2cc(Cl)ccc12 fall at or above the 30% mark?
NO

Does the reported growth for COc1ccc(/C=C/C(=O)c2ccc(NC(=O)CSc3nnc(-c4ccc(Cl)cc4)n3-c3ccccc3)cc2)cc1 fall at or above the 30% mark?
YES

Does the reported growth for C#CC[C@@H]1C[C@]2(C)[C@H]3CC[C@@H]4[C@H]5C(C(=C)C)CC[C@]5(C(=O)NCCN(CCN)CCN)CC[C@@]4(C)[C@]3(C)CC[C@H]2C(C)(C)[C@H]1OC(C)=O (some centres undefined) fall at or above the 30% mark?
NO

Does the reported growth for COc1ccc(/C=c2\c(=O)n(-c3ccccc3)c3nn4c(n23)=NNC42CCCCC2)cc1 fall at or above the 30% mark?
YES
